biological target: OTU domain-containing protein 3 (Homo sapiens) (UniProt Q5T2D3); experiment: Validation of screening hits, potency titration, in vitro enzymatic, OTU domain-containing protein 3 DUB inhibitors (AID 1645868); settings: purified OTUD3, ubiquitin-rhodamine cleavage fluorescence, 2 h
Sequence (Q5T2D3 whole entry, looked up, the tested form may be a part): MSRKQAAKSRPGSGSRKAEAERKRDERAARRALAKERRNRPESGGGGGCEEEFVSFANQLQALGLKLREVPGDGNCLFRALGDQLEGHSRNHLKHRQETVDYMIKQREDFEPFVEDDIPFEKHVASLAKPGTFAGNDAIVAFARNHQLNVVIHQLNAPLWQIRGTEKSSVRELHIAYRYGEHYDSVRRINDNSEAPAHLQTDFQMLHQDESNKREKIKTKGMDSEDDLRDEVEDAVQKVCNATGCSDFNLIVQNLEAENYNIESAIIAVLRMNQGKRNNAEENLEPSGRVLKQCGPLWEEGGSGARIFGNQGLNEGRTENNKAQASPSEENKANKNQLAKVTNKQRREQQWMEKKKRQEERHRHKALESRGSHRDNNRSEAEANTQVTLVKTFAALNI
Active and inactive are the calls of the source.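 The calls were made as follows: active = maximal percent inhibition of the deubiquitinase OTUD3 of at least 30% across the tested doses; inactive = the rest.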
Please reply with one of these outcomes: Y for active, N for inactive

q: Would you mind telling me which call this test gave COC(=O)C1C(c2ccc(OC)cc2)C2(C(=O)c3ccccc3C2=O)C2C=Cc3ccccc3N12 (centres undefined) ?
a: N

q: Would you mind telling me which call this test gave CC[C@H](C)C[C@H]1CC[C@](O)([C@](C)(O)C(=O)N[C@@H]2C(=O)N3NCCC[C@@H]3C(=O)N(O)[C@@H](C)C(=O)NCC(=O)N3NCCC[C@H]3C(=O)N(O)[C@H](C)C(=O)O[C@H]2C(C)C)O[C@@H]1C ?
a: Y

q: Would you mind telling me which call this test gave COc1cccc(-n2c(=O)[nH]c3c(C(N)=O)nc(-c4ccc(OCc5ccccc5)cc4)nc32)c1 ?
a: N

q: Would you mind telling me which call this test gave O=C(Nc1nc2ccccc2s1)c1ccc2c(c1)C(=O)N(Cc1cccnc1)C2=O ?
a: Y

Origin of the recorded values: PubChem BioAssay AID1645868
